Quick reference: IC50 of the listed items.
# Test system: RBL-2H3
# Assay Method Text: Anti-inflammatory activity in DNP-IgE-stimulated rat RBL2H3 cells assessed as reduction of IL4 secretion pretreated for 10 mins followed by DNP-HSA stimulation measured after 1 hr by ELISA
Value Type: IC50 (nM)

| Substance Smiles | Endpoint Result |
| --- | --- |
| COc1ccnc(C(=O)N[C@H]2COC(=O)[C@H](Cc3ccccc3)[C@@H](OC(=O)CC(C)C)[C@H](C)OC2=O)c1O | 4390 |
| CC(C)C(=O)O[C@H]1[C@H](C)OC(=O)[C@@H](NC(=O)c2cccc(NC=O)c2O)COC(=O)[C@@H]1Cc1ccccc1 | 41.3 |
| COc1ccnc(C(=O)N[C@H]2COC(=O)[C@H](Cc3ccccc3)[C@@H](OC(=O)C(C)C)[C@H](C)OC2=O)c1O | 1380 |
